Sourced from patent US8669254B2

EXPERIMENTAL_ENDPOINT: melting point

Report measured melting point; entry is CO/N=C1\CCCC[C@@H]1NC(=O)c1cnc(O[C@@H](C)C(F)(F)F)c(-c2ccc(Cl)cc2)c1
119 to 121 °C

Report measured melting point; entry is CO/N=C(/CNC(=O)c1cc(-c2ccc(Cl)c(Cl)c2)c(OCC(F)(F)F)nn1)C1CC1
147 to 150 °C

Report measured melting point; entry is CO/N=C(/CNC(=O)c1cnc(O[C@@H](C)C(F)(F)F)c(-c2ccc(Cl)cc2)n1)C1CC1
149 to 152 °C

Report measured melting point; entry is CO/N=C1\CCCC[C@@H]1NC(=O)c1cc(-c2ccc(Cl)cc2)c(O[C@@H](C)C(F)(F)F)cn1
123 to 125 °C

Report measured melting point; entry is CO/N=C(/CNC(=O)c1cnc(O[C@@H](C)C(F)(F)F)c(-c2ccc(Cl)cc2)c1)C1CC1
103 to 106 °C
